This collection of values is drawn from ChEMBL document CHEMBL1201862.

System: Malme-3M
Assay: NCI tumour cell line growth inhibition, 48 h
Calls of active or inactive are those of the source. Rule as the data show it: active = GI50 up to about 1.1 µM and inactive = higher.
Recorded GI50 by entry

Some compounds with known GI50 results, for comparison:
COMPOUND | GI50
C=C1C(=O)O[C@H]2C[C@@H](C)[C@@H]3CC(=O)OC[C@@]3(C)CC12 (stereo partly specified) | 17.9 µM (inactive)
C=C1N(S(=O)(=O)c2ccc(C)cc2)C(=O)OCC12CCCC2 | > 100 µM (inactive)

Provide only the value of recorded GI50 for Cc1cn(C2CC(N=[N+]=[N-])C(CO)O2)c(=O)n(CCCCO)c1=O (stereo unspecified)
> 100 µM (inactive)

Look up and state reported GI50 for "CCn1c2ccccc2c(=O)c2c(OC)ccc(OC)c21"
68.5 µM (inactive)

Tell me measured GI50 for CC(C)(C)OP(=O)(OC(C)(C)C)C(O)c1ccc(/C=C(\C#N)C(N)=O)cc1 (stereo unspecified) please.
> 100 µM (inactive)

Return GI50 for the following compound: "CCOC(=O)c1cc2ncccc2c2ccccc12"
> 100 µM (inactive)

* * *

Test system: NCI-H226
Assay: NCI tumour cell line growth inhibition, 48 h
Calls of active or inactive are those of the source. Rule as the data show it: active = GI50 up to about 1.1 µM and inactive = higher.
OUTCOME_MEASURE: GI50

COMPOUND | GI50
CC(N)Cc1ccc(F)cc1 (stereo not given) | > 100 µM (inactive)
COC(=O)C(Cc1nc2ccccc2nc1O)/C(=N\NC(C)(C)C)C(=O)Nc1c(C)cc(Br)cc1C (stereo not given) | 17.6 µM (inactive)
COc1ccc(C2SC(=N)Nc3c2c(C)nn3C(=O)c2ccncc2)cc1OC (stereo not given) | > 10 µM (inactive)
CC(C)N1C=[N+](C(C)C)CC1 | > 100 µM (inactive)
c1ccc(CCN2CCN=C2Cc2ccccc2)cc1 | > 100 µM (inactive)
CC1=CN(c2ccccc2)S2=C1c1sc3c(c1N2c1ccc(Br)cc1)CCCC3 (stereo not given) | > 100 µM (inactive)

Report GI50, nothing else, for this compound: COc1ccc(N2C(=O)C3c4[nH]c5ccccc5c4C4CCCCCCCCCCC4C3C2=O)cc1 (stereo not given)
6.93 µM (inactive)

Report GI50, nothing else, for this compound: "Nc1nc(Cl)cc(NC23CC4CC(CC(C4)C2)C3)n1"
76.2 µM (inactive)

Output GI50 of "C=C1C(=O)O[C@@H]2C[C@@]3(C)CC(=O)C=C(C)[C@@H]3C[C@H]12"
36.8 µM (inactive)

* * *

Test system: SW-620
Experiment: NCI tumour cell line growth inhibition, 48 h
Calls of active or inactive are those of the source. Rule as the data show it: active = GI50 up to about 1.1 µM and inactive = higher.
# output must be one of active, inactive

Before answering, review these 10 worked examples.
MOLECULE | CLASS_ASSIGNMENT
Cc1cc2c(cc1Cl)Sc1n[nH]c(=O)n1S2(=O)=O | inactive
S=C(N/N=C/c1ccccn1)N1CCCCC1 | active
COC(OC)c1cc2c(cc1C(=O)[C@@]13CCC[C@@H]1NC(=O)O3)OCO2 | inactive
COc1ccc(-n2c(C)nc3ccc(/N=C/c4ccccc4)cc3c2=O)cc1 | inactive
CN(C)c1ccc(/C=c2\sc3nnc(-c4cccnc4)n3c2=O)cc1 | inactive
CC(C)=CCC/C(C)=C/CC/C(C)=C/CCC1(C)CCC([C@H](C)C(=O)O)OO1.CC1=C(CC/C(C)=C/CCC2(C)CCC([C@H](C)C(=O)O)OO2)C(C)(C)CCC1 (some centres undefined) | inactive
CCOC(=O)N1CCN(Cc2cc(=O)n3cc(C)ccc3n2)CC1 | inactive
Clc1ccc(OCc2nnc(COc3ccc(OCc4nnc(COc5ccc(Cl)cc5Cl)o4)c(Cl)c3)o2)c(Cl)c1 | inactive
Cc1ccc2c(O)cc(-c3ccc(F)cc3)nc2n1 | inactive
O=S(=O)(c1ccccc1)c1cccc2c1NCCC2 | inactive

# input for lookup
Per the assay record, what outcome was assigned to "COc1cc2c(cc1C1=NC(C)(C)CO1)OCO2" ?
inactive
